src = patent US5495006A

# target_or_system: T1, HIV-1 Tat-derived peptide RKKRRQRRRPPQGS (Human immunodeficiency virus 1)
# T1 chain: RKKRRQRRRPPQGS
# assay_name: EMSA; 40.1% active RNA
# condition_context: protein: synthetic; tags: synthetic peptide, American Peptide Co; HIV LAI isolate; label: 5'-32P; linker-bridged hairpin with UCU bulge
quantity_measured: pKd
API: returns pKd as number; meaning -log10 of concentration in mol/L.

What value of pKd has been recorded for this entry: GGAGAUCUGAGCGCUCUCUCC (ssRNA, linker A -O-(CH2)9-O- replaces 6-nt loop between the two strands) [TAR conjugate 5A]
9.15
